Assignment: determine reported Plateau Ratio for the given binders.
ASSAYED TARGET: T1, LINGO-Fc (human, UniProt Q96FE5 40-538, limits assumed)
T1 construct: not shown: Fc part
T1 sequence: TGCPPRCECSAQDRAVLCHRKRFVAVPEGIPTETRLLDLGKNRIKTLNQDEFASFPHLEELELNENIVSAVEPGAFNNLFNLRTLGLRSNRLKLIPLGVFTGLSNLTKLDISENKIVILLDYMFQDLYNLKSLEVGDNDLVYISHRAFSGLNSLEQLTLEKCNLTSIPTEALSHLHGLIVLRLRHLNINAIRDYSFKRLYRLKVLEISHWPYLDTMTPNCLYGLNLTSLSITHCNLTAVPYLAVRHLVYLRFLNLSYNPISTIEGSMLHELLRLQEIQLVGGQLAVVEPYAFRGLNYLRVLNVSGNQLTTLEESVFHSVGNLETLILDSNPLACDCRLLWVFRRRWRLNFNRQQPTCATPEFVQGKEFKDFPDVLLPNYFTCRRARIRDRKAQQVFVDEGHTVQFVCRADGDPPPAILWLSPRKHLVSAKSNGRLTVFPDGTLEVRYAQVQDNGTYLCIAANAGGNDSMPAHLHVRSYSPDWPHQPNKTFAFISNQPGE
TEST PROTOCOL: direct ELISA on LINGO-Fc; OD450 at saturation relative to Li33;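 further: binding to plate-coated LINGO-Fc read by OD450, with the value at maximal saturation divided by the corresponding Li33 value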
Dear colleague, please return just the value in ratio, with no unit written.

Query: What does the record list as Plateau Ratio for Li33 variant I57T (SEQ ID NO:186) (antibody, V domains shown, unchanged chain from WT Li33) VH: EVQLLESGGGLVQPGGSLRLSCAASGFTFSIYPMFWVRQAPGKGLEWVSWIGPSGGTTKYADSVKGRFTISRDNSKNTLYLQMNSLRAEDTATYYCAREGHNDWYFDLWGRGTLVTVSS VL: DIQMTQSPGTLSLSPGERATLSCRASQSVSSYLAWYQQKPGQAPRLLIYDASNRATGIPARFSGSGSGTEFTLTISSLQSEDFAVYYCQQYDKWPLTFGGGTKVEIKR ?
Response: 1.01

Query: What does the record list as Plateau Ratio for Li33 variant W104Q (SEQ ID NO:158) (antibody, V domains shown, unchanged chain from WT Li33) VH: EVQLLESGGGLVQPGGSLRLSCAASGFTFSIYPMFWVRQAPGKGLEWVSWIGPSGGITKYADSVKGRFTISRDNSKNTLYLQMNSLRAEDTATYYCAREGHNDQYFDLWGRGTLVTVSS VL: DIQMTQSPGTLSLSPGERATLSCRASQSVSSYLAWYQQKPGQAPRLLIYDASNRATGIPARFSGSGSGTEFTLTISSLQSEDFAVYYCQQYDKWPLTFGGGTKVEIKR ?
Response: 0.91

Query: What does the record list as Plateau Ratio for Li33 variant W104Q (SEQ ID NO:187) (antibody, V domains shown, unchanged chain from WT Li33) VH: EVQLLESGGGLVQPGGSLRLSCAASGFTFSIYPMFWVRQAPGKGLEWVSWIGPSGGITKYADSVKGRFTISRDNSKNTLYLQMNSLRAEDTATYYCAREGHNDQYFDLWGRGTLVTVSS VL: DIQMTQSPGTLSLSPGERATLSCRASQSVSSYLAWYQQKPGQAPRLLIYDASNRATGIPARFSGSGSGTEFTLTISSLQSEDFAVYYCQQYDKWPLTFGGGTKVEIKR ?
Response: 0.67
